# credit: PubChem BioAssay (Tox21)

- assay system: Bile acid receptor (Homo sapiens) (UniProt Q96RI1)
- Sequence (Q96RI1 whole entry, looked up): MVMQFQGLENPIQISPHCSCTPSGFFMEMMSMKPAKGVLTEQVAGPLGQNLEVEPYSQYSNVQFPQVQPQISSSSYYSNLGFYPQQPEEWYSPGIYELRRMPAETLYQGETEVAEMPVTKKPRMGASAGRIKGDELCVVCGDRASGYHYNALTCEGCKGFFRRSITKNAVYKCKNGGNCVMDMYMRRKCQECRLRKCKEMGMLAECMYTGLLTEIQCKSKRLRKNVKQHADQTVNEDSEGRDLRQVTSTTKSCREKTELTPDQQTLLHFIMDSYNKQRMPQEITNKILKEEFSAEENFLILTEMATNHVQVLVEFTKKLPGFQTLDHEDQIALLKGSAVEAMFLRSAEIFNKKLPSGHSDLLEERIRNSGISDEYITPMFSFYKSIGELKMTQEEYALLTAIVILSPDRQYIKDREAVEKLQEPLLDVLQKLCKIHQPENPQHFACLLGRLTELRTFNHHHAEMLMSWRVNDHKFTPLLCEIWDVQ
- method description: qHTS assay to identify small molecule antagonists of the farnesoid-X-receptor (FXR) signaling pathway (AID 743217)
- applied conditions: HEK293T FXR-UAS-bla, beta-lactamase ratio, CDCA-stimulated, 16 h; series mostly up to 62.6 µM
Inconclusive results are not listed. Active and inactive are the calls of the source. Calls come from the whole dose curve; as a rule, active = well fitted inhibition curve with a large enough effect in the signal ratio in the repeat runs (not every such curve was filed as active); inconclusive = weak or mixed curves, or effect the other way; inactive = no such curve, though single readings can be large or run the other way; the % refers to the signal ratio.
Permitted responses: active, inactive

Exam item: Field: outcome | Entry: `Nc1ncnc2c1ncn2[C@H]1CC[C@@H](CO)O1`
Marked response: inactive

Exam item: Also `CCCCCCCC/C=C\CCCCCCCCCCCC(=O)O` ?
Marked response: inactive

Exam item: Moving on to `C=C1C[C@@]23CC[C@H]4[C@@](C)(CCC[C@@]4(C)C(=O)O[C@@H]4O[C@H](CO)[C@@H](O)[C@H](O)[C@H]4O)[C@@H]2CC[C@]1(O[C@@H]1O[C@H](CO)[C@@H](O)[C@H](O[C@@H]2O[C@H](CO)[C@@H](O)[C@H](O)[C@H]2O)[C@H]1O[C@@H]1O[C@H](CO)[C@@H](O)[C@H](O)[C@H]1O)C3`
Marked response: inactive

Exam item: For `CC(=O)OCC[N+](C)(C)C` then?
Marked response: inactive

Exam item: Same question, `Cc1cc(C)cc(N)c1` this time
Marked response: inactive

Exam item: Subsequent entry: `CC1=C(Br)C(=O)C(Br)=C/C1=C(/c1ccccc1S(=O)(=O)O)c1cc(Br)c(O)c(Br)c1C`
Marked response: inactive

Exam item: Further, for `CCCCCCCCCCCCCCN(CCO)CCO` ?
Marked response: active

Exam item: Same question for `CCOC(=O)c1ccc(I)cc1` please.
Marked response: inactive

Exam item: Likewise for `CCCCCC[C@@H](O)C/C=C\CCCCCCCC(=O)O` ?
Marked response: inactive

Exam item: Continue with `Oc1cccc(Nc2ccccc2)c1`
Marked response: inactive

Exam item: Queued: `CN(C(=O)CN(CCO)CC(=O)N(C)C(C)(C)Cc1ccccc1)C(C)(C)Cc1ccccc1`
Marked response: inactive

Exam item: What about this molecule? `C[C@@H](O)[C@H]1C(=O)N2C(C(=O)O)=C([C@H]3CCCO3)S[C@H]12`
Marked response: inactive

Exam item: Another molecule to check: `CC(C)=CC(=O)C=C(C)C`
Marked response: inactive

Exam item: CC(CC1c2ccccc2CCc2ccccc21)CN(C)C (stereo not given) , same question.
Marked response: inactive

Exam item: Another molecule to check: `Cc1ccccc1S`
Marked response: inactive

Exam item: Likewise for `CC(=O)c1cc2ccccc2s1` ?
Marked response: inactive

Exam item: And `Cc1cc(C)c(N)cc1C` ?
Marked response: inactive

Exam item: Cool, now `CC(C)Nc1cccnc1N1CCN(C(=O)c2cc3cc(NS(C)(=O)=O)ccc3[nH]2)CC1`
Marked response: inactive

Exam item: Can you handle `C1COC1` next?
Marked response: inactive

Exam item: Here is the next molecule: `C=C/C(C)=C/C/C=C(\C)CCC=C(C)C`
Marked response: inactive

Exam item: Next molecule: `Cc1ccccc1N=C(N)Nc1ccccc1C`
Marked response: inactive

Exam item: Proceed to `O=C(Cn1ccnc1[N+](=O)[O-])NCCO`
Marked response: inactive

Exam item: Please do the same for `Cc1ccc(Cl)c(Nc2ccccc2C(=O)O)c1Cl` as well.
Marked response: inactive

Exam item: Same lookup for `CC(=O)Oc1ccc([N+](=O)[O-])cc1CCl` , please.
Marked response: inactive

Exam item: Record: `C=COCC(C)C`
Marked response: inactive
